target: human GLP-1 receptor (Homo sapiens, UniProt P43220); construct: expressed in transfected cells; experiment: GLP-1R cAMP Assay; format: cell-based; conditions: cAMP accumulation in CHO cells stably overexpressing the human GLP-1 receptor; 30 min treatment; HitHunter cAMP kit; read-out: EC50
Sequence (P43220 24-463): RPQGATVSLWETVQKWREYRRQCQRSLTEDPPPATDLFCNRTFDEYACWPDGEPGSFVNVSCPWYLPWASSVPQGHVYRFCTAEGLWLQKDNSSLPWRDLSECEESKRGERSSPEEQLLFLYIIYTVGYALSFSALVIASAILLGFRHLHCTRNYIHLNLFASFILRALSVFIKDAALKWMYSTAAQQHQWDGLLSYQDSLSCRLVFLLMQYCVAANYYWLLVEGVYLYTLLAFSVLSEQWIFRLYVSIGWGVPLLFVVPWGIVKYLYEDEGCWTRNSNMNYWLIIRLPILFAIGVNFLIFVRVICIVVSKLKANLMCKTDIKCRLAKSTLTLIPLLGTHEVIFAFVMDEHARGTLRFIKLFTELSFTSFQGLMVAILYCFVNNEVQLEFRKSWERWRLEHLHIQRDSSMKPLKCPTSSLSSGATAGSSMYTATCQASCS
Can you tell me EC50 for the items I'm about to list?

Find the recorded EC50 belonging to Cc1ccc(OCc2cccc(CC3CCN(Cc4nc5ccc(C(=O)O)cc5n4C[C@@H]4CCO4)CC3)n2)c(CO)c1 [Example 146] and report it.
< 50 nM

Now try C[C@H]1C[C@H](Oc2cccc(COc3ccc(Cl)cc3F)n2)CCN1Cc1nc2ccc(C(=O)O)cc2n1C[C@@H]1CCO1 [Compound 290] .
< 50 nM

Now try O=C(O)c1cc(F)c2nc(CN3CCC(N(CC4CC4)c4ccnc(COc5ccc(Cl)cc5F)n4)CC3)n(C[C@@H]3CCO3)c2c1 [Compound 511] .
< 50 nM
